- study_target: IT1-Fc-A1 scFv-Fc-scFv bispecific molecule (human)
- test: SPR
pKd: −log10 of the molar value.
reported_metric: pKd

{"binder": "human CXCL13 (natural protein) VLEVYYTSLRCRCVQESSVFIPRRFIDRIQILPRGNGCPRKEIIVWKKNKSIVCVDPQAEWIQRMMEVLRKRSSSTLPVPVFKRKIP", "assay_value": 11.00}
